biological target: Adrenergic β2 (hu) (Homo sapiens, UniProt P07550); construct: Eurofins Panlabs 302150; experiment: Functionality assay, Adenylyl Cyclase, Eurofins Panlabs 302150; format: cell-based
Sequence (P07550 whole entry): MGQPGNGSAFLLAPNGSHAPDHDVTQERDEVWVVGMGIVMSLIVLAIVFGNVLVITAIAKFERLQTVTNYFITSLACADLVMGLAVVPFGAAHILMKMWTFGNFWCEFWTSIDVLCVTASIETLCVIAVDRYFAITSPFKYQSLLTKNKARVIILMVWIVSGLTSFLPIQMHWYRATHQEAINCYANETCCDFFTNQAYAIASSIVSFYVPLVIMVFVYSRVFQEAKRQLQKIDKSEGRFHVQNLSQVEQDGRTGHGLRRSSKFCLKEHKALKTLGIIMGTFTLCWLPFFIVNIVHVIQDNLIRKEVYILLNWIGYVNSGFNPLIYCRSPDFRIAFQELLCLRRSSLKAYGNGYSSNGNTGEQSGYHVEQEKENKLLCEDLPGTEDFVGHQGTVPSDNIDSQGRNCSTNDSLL
Measurement Kind: IC50 (µM)
Your answer is read as µM, so omit the unit and give the number.

Input line: Sample C[C@@H]1CN(C(=N)N)N=C1c1ccc(F)cc1O — what was its IC50?
Output line: 154

* * *

Target: Adrenergic α1B (hu) (Homo sapiens, UniProt P35368)
Construct: Eurofins Panlabs 302060
Sequence (P35368 1-520): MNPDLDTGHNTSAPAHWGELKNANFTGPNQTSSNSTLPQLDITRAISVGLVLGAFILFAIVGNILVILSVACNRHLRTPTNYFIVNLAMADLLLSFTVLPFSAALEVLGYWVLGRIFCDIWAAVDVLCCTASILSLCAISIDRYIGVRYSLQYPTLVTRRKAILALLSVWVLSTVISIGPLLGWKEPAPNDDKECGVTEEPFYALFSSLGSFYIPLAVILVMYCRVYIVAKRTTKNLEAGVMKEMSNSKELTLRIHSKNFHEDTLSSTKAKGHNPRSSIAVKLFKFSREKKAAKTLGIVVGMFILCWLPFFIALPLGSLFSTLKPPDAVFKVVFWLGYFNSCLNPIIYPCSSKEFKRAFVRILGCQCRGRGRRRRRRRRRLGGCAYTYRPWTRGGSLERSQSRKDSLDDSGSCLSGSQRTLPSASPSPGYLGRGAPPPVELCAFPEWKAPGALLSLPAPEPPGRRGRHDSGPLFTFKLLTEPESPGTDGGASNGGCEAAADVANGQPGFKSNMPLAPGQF
Experiment: Functionality assay, IP1, Eurofins Panlabs 302060
Assay type: cell-based
Measurement Kind: IC50 (µM)
Number only, in µM; omit the unit.

Input line: What value of measured IC50 is listed for C[C@@H]1CN(C(=N)N)N=C1c1ccc(F)cc1O [AM1476] ?
Output line: 9.53

* * *

biological target: UniProt Q02152; test: Calcium influx functionality assay (FLIPR) in CHO-K1 cells expressing mouse 5-HT2BR; conditions: agonist 5 nM α-methylserotonin
Sequence (Q02152 whole entry): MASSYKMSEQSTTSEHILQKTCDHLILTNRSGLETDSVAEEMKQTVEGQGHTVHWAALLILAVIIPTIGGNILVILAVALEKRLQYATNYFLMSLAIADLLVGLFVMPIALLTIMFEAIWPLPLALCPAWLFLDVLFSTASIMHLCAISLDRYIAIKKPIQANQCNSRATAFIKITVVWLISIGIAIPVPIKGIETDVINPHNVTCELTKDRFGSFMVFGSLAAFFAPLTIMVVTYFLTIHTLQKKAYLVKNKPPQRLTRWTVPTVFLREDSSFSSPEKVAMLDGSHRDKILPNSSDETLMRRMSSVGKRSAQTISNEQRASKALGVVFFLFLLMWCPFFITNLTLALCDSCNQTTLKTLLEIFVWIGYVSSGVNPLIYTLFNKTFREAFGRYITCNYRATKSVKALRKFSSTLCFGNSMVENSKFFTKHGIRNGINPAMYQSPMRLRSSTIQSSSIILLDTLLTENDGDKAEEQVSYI
Measurement Kind: pIC50
pIC50 here: minus log base 10 of the concentration, concentration in moles per litre.

Input line: Record request: pIC50 value, item C[C@@H]1CN(C(=N)N)N=C1c1ccc(F)cc1O
Output line: 7.94

* * *

molecular target: 5-HT2CR (Homo sapiens, UniProt P28335); construct: 355200 (GTPγS); experiment: Functionality assay, [35S]GTPγS binding; details: inhibition of 5-HT (100 nM) induced [35S]GTPγS binding; read-out: IC50, antagonistic activity, human 5-HT2C
Sequence (P28335 33-458): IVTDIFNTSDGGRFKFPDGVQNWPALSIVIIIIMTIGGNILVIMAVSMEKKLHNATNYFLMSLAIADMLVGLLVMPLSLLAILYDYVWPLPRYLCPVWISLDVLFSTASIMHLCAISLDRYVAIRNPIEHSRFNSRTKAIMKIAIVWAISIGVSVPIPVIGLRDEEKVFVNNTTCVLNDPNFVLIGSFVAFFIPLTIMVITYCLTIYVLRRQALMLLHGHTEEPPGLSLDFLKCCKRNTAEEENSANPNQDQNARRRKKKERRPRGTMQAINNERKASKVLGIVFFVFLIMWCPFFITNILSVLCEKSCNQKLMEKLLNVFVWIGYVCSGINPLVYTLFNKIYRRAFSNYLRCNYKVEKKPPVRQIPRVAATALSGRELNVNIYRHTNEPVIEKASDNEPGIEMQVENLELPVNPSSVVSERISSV
Measurement Kind: IC50 (µM)
# value in µM; strip the unit string

Input line: Quick check: IC50 on 5-HT2CR (Homo sapiens, UniProt P28335), item C[C@@H]1CN(C(=N)N)N=C1c1ccc(F)cc1O ?
Output line: 3.1
